System: MOLT-4 leukemia
Assay: NCI tumour cell line growth inhibition, 48 h
Kindly state TGI for each of the entries shown.

Task item: Report TGI for O=C1CC2(C[C@@H]3CCCCCCCCC[C@@H](C3)C2)N1 (stereo not given in full) please.
Reply: 37.4 µM

Task item: Report TGI for CC1(C)CC2(C)CC1CC2O (stereo not given) please.
Reply: > 100 µM

Task item: Report TGI for Nc1n[nH]c(=O)[nH]1 please.
Reply: > 100 µM

Task item: Report TGI for O=C1NC(c2ccc(O)cc2)C2CCC1C2 (stereo not given) please.
Reply: > 100 µM

Task item: Report TGI for c1sc(NC2=NCCO2)c2c1CCCC2 please.
Reply: > 100 µM

Task item: Report TGI for COc1cc(C(=O)NC2c3ccccc3-c3ccccc32)c(N)cc1OCc1ccccc1 please.
Reply: > 100 µM

Task item: Report TGI for Cc1ccc(S(=O)(=O)N2CCN3C(=O)c4ccccc4C32c2ccc(F)cc2)cc1 (stereo not given) please.
Reply: 65.9 µM

Task item: Report TGI for CC(C)CC(N)C(=O)OCN1C(=O)C2C3C=CC(C2C1=O)C1C2C(=O)N(COC(=O)C(N)CC(C)C)C(=O)C2C31 (stereo not given) please.
Reply: > 100 µM

Task item: Report TGI for CC[C@@H]1CC[C@@H]2[C@H](CC[C@]3(C)[C@@H](O)CC[C@@H]23)[C@H]1C(=O)O please.
Reply: > 100 µM

Task item: Report TGI for N#CC(=C1SCS1)[N+](=O)[O-] please.
Reply: 6.5 µM

###

Kindly state TGI for each of the entries shown.
Test system: M19-MEL melanoma
Assay: NCI tumour cell line growth inhibition, 48 h

Task item: Report TGI for CSC1=NC=CCN1C please.
Reply: > 100 µM

Task item: Report TGI for COc1ccc(/C(=C/n2ccnc2)C(=O)c2ccc(OC)c(OC)c2)cc1 please.
Reply: > 100 µM

Task item: Report TGI for COC(=O)C(=O)CC(=O)CCn1ncc(Cl)c(Cl)c1=O please.
Reply: 15.3 µM

Task item: Report TGI for O=C1NC2(CCCC2)C(=O)C12CCCC2 please.
Reply: > 100 µM

Task item: Report TGI for O=C1CC2(C[C@@H]3CCCCCCCCC[C@@H](C3)C2)N1 (stereo partly drawn) please.
Reply: 28.8 µM

Task item: Report TGI for Nc1n[nH]c(=O)[nH]1 please.
Reply: > 100 µM

Task item: Report TGI for O=C1NC(c2ccc(O)cc2)C2CCC1C2 (stereo not drawn) please.
Reply: > 100 µM

Task item: Report TGI for CCOC(=O)CC1=Nc2ccccc2SC1 please.
Reply: > 100 µM

###

Kindly state TGI for each of the entries shown.
System: SK-MEL-5 melanoma
Assay: NCI tumour cell line growth inhibition, 48 h

Task item: Report TGI for Cc1nn(-c2ccc(S(=O)(=O)[O-])cc2)c([O-])c1N=[N+](C)c1ccc(-c2ccc(N=Nc3ccc4c(S(=O)(=O)[O-])cc(S(=O)(=O)[O-])c(N)c4c3[O-])c([O-])c2)cc1[O-].[Cu+2].[Cu+2].[Na+] please.
Reply: > 100 µM

Task item: Report TGI for Cc1ccc(-c2c(N)nc(NC#N)nc2CCC(=O)Nc2ccccc2[N+](=O)[O-])cc1 please.
Reply: > 100 µM

Task item: Report TGI for COC1(C)CC2N(C(=O)c3ccccc3)N=C(c3ccccc3)CC2(C)O1 (stereo not given) please.
Reply: > 100 µM

Task item: Report TGI for CCC(=O)C(c1ccccc1)c1ccccn1 (stereo not given) please.
Reply: > 100 µM

Task item: Report TGI for CCOc1ccc(S(=O)(=O)/N=C2\C=C(SCC(=O)O)C(=O)c3ccccc32)cc1 please.
Reply: 3.1 µM

###

Test system: SF-295 CNS
Test: NCI tumour cell line growth inhibition, 48 h
readoutType: TGI

Task item: Report TGI for O=c1[nH]cnc2c(C3OC(CO)C(O)C3O)c[nH]c12 (stereo not given) please.
Reply: > 100 µM

Task item: Report TGI for CNC(=O)c1ccccc1CC1(O)c2ccccc2Oc2ccccc21 please.
Reply: > 100 µM

Task item: Report TGI for CC(C)=CCN1CC(C)C(=O)Nc2cc(Cl)ccc21 (stereo not given) please.
Reply: > 100 µM

Task item: Report TGI for CC(=O)c1ccc(Nc2cc(-c3ccccc3)nc3c(O)cccc23)cc1 please.
Reply: > 100 µM

Task item: Report TGI for O=C1/C(=C/c2ccc(F)cc2)CCOc2ccc([N+](=O)[O-])cc21 please.
Reply: 9.23 µM

Task item: Report TGI for CCCN=C1CC(C)Nc2ccccc2N1 (stereo not given) please.
Reply: > 100 µM

Task item: Report TGI for COc1ccc2nc(-c3ccc(OCc4ccccc4)cc3)ccc2c1 please.
Reply: > 100 µM

Task item: Report TGI for Cc1nn(-c2ccc(S(=O)(=O)[O-])cc2)c([O-])c1N=[N+](C)c1ccc(-c2ccc(N=Nc3ccc4c(S(=O)(=O)[O-])cc(S(=O)(=O)[O-])c(N)c4c3[O-])c([O-])c2)cc1[O-].[Cu+2].[Cu+2].[Na+] please.
Reply: > 100 µM

Task item: Report TGI for CCOC(=O)c1c(NC(=O)c2ccccc2)sc2c1CCCC2 please.
Reply: > 100 µM

Task item: Report TGI for C=CC(=O)Nc1cccc(-c2nc(SC)nc(Nc3ccccc3OC)c2C#N)c1 please.
Reply: 4.46 µM

###

Test system: OVCAR-3 ovarian
Assay: NCI tumour cell line growth inhibition, 48 h
Kindly state TGI for each of the entries shown.
The figure you give is taken to be in µM; do not add the unit.

Task item: Please state recorded TGI (tested on OVCAR-3 ovarian) of Clc1nc(Cl)nc(NC23CC4CC(CC(C4)C2)C3)n1
Reply: 37.7

Task item: Please state recorded TGI (tested on OVCAR-3 ovarian) of COc1ccc(/C=C/C=C(/C#N)C(N)=S)cc1
Reply: 42.7

###

Test system: NCI/ADR-RES ovarian
Assay: NCI tumour cell line growth inhibition, 48 h
Kindly state log10 of TGI for each of the entries shown.
A value of 2 here means TGI of 100 in µM, since values are log10.

Task item: Report log10 of TGI for COc1cc2c3c(cccc3c1)C(=O)N(CCN1CCCC1)C2=O please.
Reply: 0.91

Task item: Report log10 of TGI for COC(=O)C1OC(O[C@H]2CCC3(C)C(CCC4(C)C3CC=C3C5CC(C)(C)CCC5(C(=O)O)CC[C@]34C)C2(C)C)C(O)C(OC2OC(CO)C(O)C(O)C2O)C1O (some centres undefined) please.
Reply: 1.13

Task item: Report log10 of TGI for Cc1ccc(-c2cc(N)n(-c3nc4c([nH]3)c(=O)n(C)c(=O)n4C)n2)cc1 please.
Reply: 0.89

Task item: Report log10 of TGI for O=c1oc2ccccc2c(O)c1C(c1cc(OCc2ccccc2)cc(OCc2ccccc2)c1)c1c(O)c2ccccc2oc1=O please.
Reply: 1.92

Task item: Report log10 of TGI for O=C1CC(O)c2c1csc2Br (centres undefined) please.
Reply: 1.69

###

System: SK-MEL-2 melanoma
Assay: NCI tumour cell line growth inhibition, 48 h
Kindly state TGI for each of the entries shown.
The figure you give is taken to be in µM; do not add the unit.

Task item: Report TGI for Cc1cc2nc3c4cc(Cl)ccc4n(CCN(C)C)c3nc2cc1C please.
Reply: 4.45

Task item: Report TGI for CC1(C)N=C(N)N=C(N)N1c1ccc(CCCCc2ccc(S(=O)(=O)F)cc2)cc1 please.
Reply: 21.8

Task item: Report TGI for N#Cc1c(NC(=O)c2cccc(C(F)(F)F)c2)sc2c1CCC(=O)C2 please.
Reply: 6.35

Task item: Report TGI for O=C1CC(=O)N(c2ccccc2)N1/C(=C/c1ccccc1)c1ccccc1 please.
Reply: 69

Task item: Report TGI for COC(=O)C(=O)CC(=O)CCn1ncc(Cl)c(Cl)c1=O please.
Reply: 32.5

Task item: Report TGI for C[C@@H]1CC[C@@H]2[C@@H]1[C@H](OC(=O)/C=C/c1ccccc1)[C@]1(c3ccccc3)C[C@@H](OC(=O)CO)[C@@]2(C)O1 please.
Reply: 38.3

Task item: Report TGI for COc1cccc(/C=C/C(=O)c2cc3c(N)c(C(=O)Nc4ccccc4C)sc3nc2C)c1 please.
Reply: 8.18

Task item: Report TGI for Cc1cccc(N2C(=O)C3ON(C(C(N)=O)c4ccccc4)C(c4c5ccccc5c(Cl)c5ccccc45)C3C2=O)c1C (stereo unspecified) please.
Reply: 20

Task item: Report TGI for N#Cc1c(N)[nH]c(=S)c(C#N)c1-c1cccc(Cl)c1 please.
Reply: 56.6

Task item: Report TGI for Cc1nn(-c2ccc(F)cc2)c2ncnc(Nc3ccc(NC(=O)Nc4ccc(Cl)c(C(F)(F)F)c4)cc3)c12 please.
Reply: 5.66

Task item: Report TGI for O=C(CSc1nc2ccc([N+](=O)[O-])cc2[nH]1)Nc1ccc(F)c(Cl)c1 please.
Reply: 6.35

Data provenance: PubChem BioAssay (NCI)
